- TEST_NAME: passive permeability, PAMPA, ADME assay (AID 1508612)
- PARTICULARS: pH 7.4, 30.0 min, 50.0 µM
OUTCOME_MEASURE: Papp (×10⁻⁶ cm/s)
The figure you give is taken to be in ×10⁻⁶ cm/s; do not add the unit.

# COMPOUND, UNITS, Papp
data = [
    ("COc1cccc(CNc2ccc(S(=O)(=O)Nc3ccc(C4CCNCC4)cc3)cc2)c1O", "×10⁻⁶ cm/s", 1.79),
    ("Cc1ccnc(NC(=S)N2CCN(c3ccc(C(F)(F)F)cc3)CC2)c1", "×10⁻⁶ cm/s", 587),
    ("Cc1nn2c(c1-c1ccccc1-c1ccccc1)N(Cc1ccccc1)CCC2", "×10⁻⁶ cm/s", 381),
    ("Cc1ccc(-c2nc3ccccc3o2)cc1NC(=O)COc1ccccc1", "×10⁻⁶ cm/s", 791),
    ("CCOC(=O)c1ccc(NC(=O)CSc2nc3c(cc2C#N)N2CCC3CC2)cc1", "×10⁻⁶ cm/s", 422),
    ("CC#CC(=O)N1CCC[C@H]1c1nc(-c2ccc(C(=O)Nc3ccccn3)cc2)c2c(N)nccn12", "×10⁻⁶ cm/s", 39.9),
    ("CCOc1ccc(CCNC(=O)c2ccnn2Cc2ccccn2)cc1OCC", "×10⁻⁶ cm/s", 177),
    ("COc1ccccc1CNC(=O)CCCn1nc(C)c2c(C)n(-c3ccc(C)cc3)nc2c1=O", "×10⁻⁶ cm/s", 604),
    ("COC(=O)c1ccc(NC(=O)c2nc3ccccc3n(C)c2=O)cc1", "×10⁻⁶ cm/s", 350),
    ("NC(=O)C1CCN(c2nc(-c3cccnc3)cs2)CC1", "×10⁻⁶ cm/s", 23.2),
]

The record that follows has no Papp shown yet.
Problem: Recorded Papp for Cc1ccc(S(=O)(=O)Nc2cc(F)ccc2C(=O)Nc2nc(-c3ccccc3)cs2)cc1 , please?
Solution: 244

* * *

# Papp values compiled below
- TEST_NAME: passive permeability, PAMPA, ADME assay (AID 1508612)
- PARTICULARS: pH 7.4, 30.0 min, 50.0 µM
Numeric answer only, unit ×10⁻⁶ cm/s assumed.

Worked examples follow.
# COMPOUND, OUTCOME_MEASURE, UNITS, OBSERVED
records = [
    ("Cc1cccc(Nc2nc(NCc3ccco3)c3ccccc3n2)c1", "Papp", "×10⁻⁶ cm/s", 730),
    ("CC(C)CN(C[C@@H](O)[C@H](Cc1ccccc1)NC(=O)O[C@@H]1CO[C@H]2OCC[C@H]21)S(=O)(=O)c1ccc(N)cc1", "Papp", "×10⁻⁶ cm/s", 192),
]

Problem: Recorded Papp of Cc1ccccc1OCC(O)CO (configuration not stated) , please.
Solution: 44.4

Problem: Which Papp reading was recorded for the compound Cc1nc(N)nc2ccccc12 ?
Solution: 69.7

Problem: Quick check: Papp of Nc1nc2c(s1)C(c1cccc(F)c1F)CC(=O)N2 (configuration not stated) ?
Solution: 9.86

Problem: Could you share which Papp value was measured for COC(=O)c1ccc(Nc2nc(-c3ccncc3)nc3ccccc23)cc1OC ?
Solution: 676

Problem: Query (compound): Cn1ccc2cc(-c3csc(N4CCC(C(N)=O)CC4)n3)ccc21 ; field requested: Papp
Solution: 823

Problem: Find the recorded Papp belonging to CCOc1ccc(/C=C/c2nc3ccccc3n2S(=O)(=O)c2ccc(Br)cc2)cc1 and report it.
Solution: 926

Problem: What does the record list as Papp for C[C@H]1CCC[C@H](O)CCC/C=C/c2cc(O)cc(O)c2C(=O)O1 ?
Solution: 864

Problem: Report Papp for CC(C)(C)C1CCc2c(sc(NC(=O)c3ccncc3)c2C(N)=O)C1 (configuration not stated) please.
Solution: 581

Problem: Bench note: what Papp did O=C(NC1CCCc2c1cnn2-c1cccc(O)c1)c1ccccn1 (configuration not stated) show?
Solution: 836

Problem: Report Papp for O=C1CCCC2=C1C1(CCS(=O)(=O)C1)N=C(Nc1nc3ccccc3o1)N2 (configuration not stated) please.
Solution: 176

Problem: Requested field: Papp. Item: CN(Cc1ccccc1)C(=O)c1ccc(S(=O)(=O)Nc2ccccc2)cc1
Solution: 288

Problem: If you can, please state the reported Papp value of c1ccc(-c2nnc3n2NC(c2ccc4c(c2)OCO4)S3)cc1 (configuration not stated) .
Solution: 607
